Target: OgOGA (Oceanicola granulosus OGA) (Oceanicola granulosus)
Sequence (Q2CEE3 whole entry): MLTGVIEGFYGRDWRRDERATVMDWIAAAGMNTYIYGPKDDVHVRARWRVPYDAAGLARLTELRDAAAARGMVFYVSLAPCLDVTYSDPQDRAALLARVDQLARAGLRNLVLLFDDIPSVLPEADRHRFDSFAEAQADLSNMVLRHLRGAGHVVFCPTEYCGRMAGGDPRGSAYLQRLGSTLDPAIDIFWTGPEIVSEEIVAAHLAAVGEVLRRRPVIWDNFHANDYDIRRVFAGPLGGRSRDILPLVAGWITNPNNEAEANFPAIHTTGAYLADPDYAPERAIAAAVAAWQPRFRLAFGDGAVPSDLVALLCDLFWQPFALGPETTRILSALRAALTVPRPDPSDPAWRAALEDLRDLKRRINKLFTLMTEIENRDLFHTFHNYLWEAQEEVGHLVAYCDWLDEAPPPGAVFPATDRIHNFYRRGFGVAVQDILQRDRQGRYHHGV
Assay: Inhibition of OgOGA by OGA inhibitors, 4MU-GlcNAc substrate
Assay type: biochemical
Measured property: IC50 (µM)
Write it as a number; the unit µM goes unstated.

INPUT: Please give the measured IC50 for this compound: CC(=O)N[C@H]1/C(=N/OC(=O)Nc2ccccc2)O[C@H](CO)[C@@H](O)[C@@H]1O
OUTPUT: 11
